test system: glycine receptor (GlyR); test: Glycine-induced chloride current (IGly), whole-cell patch-clamp in isolated pyramidal neurons of the rat hippocampus; assay type: cell-based; details: time constant of desensitization; 100 μM glycine
Reported τdes Hill coefficient of IGly values for a set of compounds

{"columns": ["Compound", "Assayed system", "τdes Hill coefficient of IGly"],
 "data": [
  ["C[C@]12CC[C@H]3[C@@H](CCC4=CC(=O)CC[C@@]43C)[C@@H]1CC[C@H]2O [Compound 5, 17α-Hydroxyandrost-4-en-3-one]", "glycine receptor (GlyR)", 0.51],
  ["C[C@]12CC[C@H](O)CC1=CC[C@@H]1[C@@H]2CC[C@]2(C)C(=O)CC[C@@H]12 [Compound 8, 3β-Hydroxy-androst-5-en-17-one]", "glycine receptor (GlyR)", 0.57],
  ["C[C@]12CCC(=O)C[C@H]1CC[C@@H]1[C@@H]2CC[C@]2(C)C(=O)CC[C@@H]12", "glycine receptor (GlyR)", 0.56]
]}
